Measured PDI by item
ASSAY_TEXT: DLS size of dendrimersomes assembled from glycerol-JDs in water at different concentrations
Format: physicochemical
REPORTED_CONDITIONS: JD 0.15 mg·mL−1 in water
READOUT: PDI

CCCCCCCCCCCCOc1cc(OCCCCCCCCCCCC)cc(C(=O)OC[C@@H](COC(=O)C(C)(COC(=O)c2cc(OCCOCCOCCOC)c(OCCOCCOCCOC)c(OCCOCCOCCOC)c2)COC(=O)c2cc(OCCOCCOCCOC)c(OCCOCCOCCOC)c(OCCOCCOCCOC)c2)OC(=O)c2cc(OCCCCCCCCCCCC)cc(OCCCCCCCCCCCC)c2)c1 [Compound 1S, (3,5)-12G1-GC-(S)-BMPA-(3,4,5)-3EO-G1] :: 0.190
CCCCCCCCCCCCOc1cc(OCCCCCCCCCCCC)cc(C(=O)OCC(COC(=O)C(C)(COC(=O)c2cc(OCCOCCOCCOC)c(OCCOCCOCCOC)c(OCCOCCOCCOC)c2)COC(=O)c2cc(OCCOCCOCCOC)c(OCCOCCOCCOC)c(OCCOCCOCCOC)c2)OC(=O)c2cc(OCCCCCCCCCCCC)cc(OCCCCCCCCCCCC)c2)c1 (racemic) [Compound 1rac, (3,5)-12G1-GC-(rac)-BMPA-(3,4,5)-3EO-G1] :: 0.232

====

ASSAY_TEXT: Stability of DNPs by DLS after storage at 5° C.
Type: physicochemical
REPORTED_CONDITIONS: after 75 days at 5° C.; IAJD 4.0 mg/mL + Luc-mRNA 0.1 mg/mL, acetate buffer
Protocol: The stability of the DNPs as assayed by DLS. All the samples are prepared in acetate buffer. […]
Below, each entry is listed alongside its reported Size (d, nm).
READOUT: Size (d, nm)

CCCCCCCCCCCCOc1cc(COC(=O)c2cc(OCCOCCOCCCC(=O)CCCN3CCCCC3)c(OCCOCCOCCOCc3ccccc3)c(OCCOCCOCCOC(=O)CCCN3CCCCC3)c2)cc(OCCCCCCCCCCCC)c1 :: 103
CCCCCCCCCCCOc1cc(COC(=O)c2cc(OCCOCCOCCCC(=O)CCCN3CCCCC3)c(OCCOCCOCCOCc3ccccc3)c(OCCOCCOCCOC(=O)CCCN3CCCCC3)c2)cc(OCCCCCCCCCCC)c1 :: 96
CCCCCCCCCCCOc1cc(COC(=O)CCCN2CCN(C)CC2)cc(OCCCCCCCCCC)c1 :: 107
CCCCCCCCCCCCCCCOc1cc(COC(=O)CCCN2CCN(C)CC2)cc(OCCCCCCCCCCC)c1 :: 105

====

Overview of recorded pKa for various molecules
ASSAY_TEXT: pKa measurements of individual IAJD molecules by titration
Format: physicochemical
REPORTED_CONDITIONS: ethanol saturated with NaCl, titrated with 0.1 M aqueous HCl; individual IAJD molecules, titration
READOUT: pKa

CCCCCCCCCCCCCCCOc1cc(COC(=O)CCCN2CCN(C)CC2)cc(OCCCCCCCCCCCCC)c1 [IAJD 145] :: 6.28
CCCCCCCCCCCCCCCCCCOc1cc(COC(=O)CCCN2CCN(C)CC2)cc(OCCCCCCCCCCCCCCC)c1 [IAJD 153] :: 6.42
CCCCCCCCCCCCCCCOc1cc(COC(=O)CCCN2CCN(CCO)CC2)cc(OCCCCCCCCCCCC)c1 [IAJD 144] :: 6.51
CCCCCCCCCCCCCOc1cc(COC(=O)CCCN2CCN(CCO)CC2)cc(OCCCCCCCCCCC)c1 [IAJD 117] :: 6.49
CCCCCCCCCCCOc1cc(COC(=O)CCCN2CCN(CCO)CC2)cc(OCCCCCCCCC)c1 [IAJD 122] :: 6.66
CCCCCCCCCCCCCCCOc1cc(COC(=O)CCCN2CCN(C)CC2)cc(OCCCCCCCCCC)c1 [IAJD 141] :: 6.56
CCCCCCCCCCCCCCCCCOc1cc(COC(=O)CCCN2CCN(CCO)CC2)cc(OCCCCCCCCCCCCCCC)c1 [IAJD 152] :: 6.65
CCCCCCCCCCCCCOc1cc(COC(=O)CCCN2CCN(CCO)CC2)cc(OCC(CC)CCCC)c1 (centres unmarked) [IAJD 162] :: 6.33

====

Tested on: liver
ASSAY_TEXT: In vivo mRNA delivery, IVIS imaging of organs: liver
Design: species or system mice; key: liver: strong: Strong meant the luminescence intensity in that organ was relatively high, compared to other organs; weak: Weak meant the luminescence intensity in that organ was relatively low, compared to other organs
REPORTED_CONDITIONS: Table 17; mice, IVIS, 4-6 h after injection; intensity relative to other organs
READOUT: Organs with luminescence: liver

CCCCCCCCCCCCCCCOc1cc(COC(=O)CCCN2CCN(CCO)CC2)cc(OCCCCCCCCCCCCC)c1 [IAJD 146] :: liver (strong),
CCCCCCCCCCCCCCOc1cc(COC(=O)CCCN2CCN(CCO)CC2)cc(OCCCCCCCCCCC)c1 [IAJD 125] :: liver (weak),
CCCCCCCCCCCCCCCOc1cc(COC(=O)CCCN2CCN(CCO)CC2)cc(OCCCCCCCCCCC)c1 [IAJD 119] :: liver (weak),
CCCCCCCCCCCCCCCOc1cc(COC(=O)CCCN2CCN(C)CC2)cc(OCCCCCCCCCCC)c1 [IAJD 118] :: liver (weak),
CCCCCCCCCCCCCCCCOc1cc(COC(=O)CCCN2CCN(C)CC2)cc(OCCCCCCCCCCCCC)c1 [IAJD 173] :: liver (strong),
CCCCCCCCCCCCCCCCCOc1cc(COC(=O)CCCN2CCN(C)CC2)cc(OCCCCCCCCCCC)c1 [IAJD 126] :: liver (weak),
CCCCCCCCCCCCCCCCOc1cc(COC(=O)CCCN2CCN(C)CC2)cc(OCCCCCCCCCCC)c1 [IAJD 86] :: liver (strong),
CCCCCCCCCCCCCCCOc1cc(COC(=O)CCCN2CCN(C)CC2)cc(OCC(CC)CCCC)c1 (stereo not shown) [IAJD 135] :: liver (strong),
CCCCCCCCCCCCCCCCCCOc1cc(COC(=O)CCCN2CCN(C)CC2)cc(OCCCCCCCCCCCC)c1 [IAJD 107] :: liver (weak),
CCCCCCCCCCCCCOc1cc(COC(=O)CCCN2CCN(C)CC2)cc(OCCCCCCCCCCC)c1 [IAJD 116] :: liver (weak),
CCCCCCCCCCCCCCCOc1cc(COC(=O)CCCN2CCN(CCO)CC2)cc(OCCCCCCCCCCCCCC)c1 [IAJD 148] :: liver (weak),
CCCCCCCCCCCCCCCCOc1cc(COC(=O)CCCN2CCN(CCO)CC2)cc(OCCCCCCCCCCCCCCC)c1 [IAJD 150] :: liver (weak),
CCCCCCCCCCCCCCCCCCOc1cc(COC(=O)CCCN2CCN(C)CC2)cc(OCCCCCCCCCCCCC)c1 [IAJD 177] :: liver (strong),
CCCCCCCCCCCCCCOc1cc(COC(=O)CCCN2CCN(C)CC2)cc(OCCCCCCCCCCCCC)c1 [IAJD 171] :: liver (strong),
CCCCCCCCCCCCCCCCCCOc1cc(COC(=O)CCCN2CCN(CCO)CC2)cc(OCCCCCCCCCCCCC)c1 [IAJD 178] :: liver (weak),
CCCCCCCCCCCCCCCCCOc1cc(COC(=O)CCCN2CCN(C)CC2)cc(OCCCCCCCCCCCCCCC)c1 [IAJD 151] :: liver (weak),
CCCCCCCCCCCCCCOc1cc(COC(=O)CCCN2CCN(CCO)CC2)cc(OCCCCCCCCCCCCC)c1 [IAJD 172] :: liver (weak),
CCCCCCCCCCCCCCCCCCOc1cc(COC(=O)CCCN2CCN(CCO)CC2)cc(OCCCCCCCCCCC)c1 [IAJD 128] :: liver (weak),
CCCCCCCCCCCCCOc1cc(COC(=O)CCCN2CCN(C)CC2)cc(OCC(CC)CCCC)c1 (stereo not shown) [IAJD 161] :: liver (strong),
CCCCCCCCCCCCCCOc1cc(COC(=O)CCCN2CCN(C)CC2)cc(OCCCCCCCCCCC)c1 [IAJD 105] :: liver (strong),
CCCCCCCCCCCCCCCOc1cc(COC(=O)CCCN2CCN(C)CC2)cc(OCCCCCCCCCCCC)c1 [IAJD 143] :: liver (strong),
CCCCCCCCCCCOc1cc(COC(=O)CCCN2CCN(CCO)CC2)cc(OCC(CC)CCCC)c1 (stereo not shown) [IAJD 130] :: liver (weak),
CCCCCCCCCCCCCCCOc1cc(COC(=O)CCCN2CCN(CCO)CC2)cc(OCCCCCCCCCCCC)c1 [IAJD 144] :: liver (weak),
CCCCCCCCCCCCCOc1cc(COC(=O)CCCN2CCN(CCO)CC2)cc(OCC(CC)CCCC)c1 (stereo not shown) [IAJD 162] :: liver (weak),
CCCCCCCCCCCCOc1cc(COC(=O)CCCN2CCN(CCO)CC2)cc(OCCCCCCCCCCCC)c1 [IAJD 71] :: liver (weak),
CCCCCCCCCCCCCCCCCCOc1cc(COC(=O)CCCN2CCN(C)CC2)cc(OCCCCCCCCCCCCCCC)c1 [IAJD 153] :: liver (strong),
CCCCCCCCCCCCCCCOc1cc(COC(=O)CCCN2CCN(C)CC2)cc(OCCCCCCCCCCCCCC)c1 [IAJD 147] :: liver (weak),
CCCCCCCCCCCCCCCOc1cc(COC(=O)CCCN2CCN(C)CC2)cc(OCCCCCCCCCC)c1 [IAJD 141] :: liver (strong),
CCCCCCCCCCCCCCCOc1cc(COC(=O)CCCN2CCN(CCO)CC2)cc(OCC(CC)CCCC)c1 (stereo not shown) [IAJD 136] :: liver (weak),
CCCCCCCCCCCCCCCCCCOc1cc(COC(=O)CCCN2CCN(C)CC2)cc(OCCCCCCCCCCC)c1 [IAJD 81] :: liver (strong),
CCCCCCCCCCCCCCCCOc1cc(COC(=O)CCCN2CCN(C)CC2)cc(OCCCCCCCCCCCC)c1 [IAJD 106] :: liver (weak),
